assay: Ratio of drug uptake in ICR mouse brain to plasma at 30 mg/kg, po measured at 0.75 hrs by LC-MS analysis; format: ADME, organism-based; conditions: read-out: BPR
endpoint: Kp at 0.75 h

A. CC#C[C@@H](CC(=O)O)c1ccc(OCc2ccc(C(=O)N[C@H]3CCCc4ccccc43)cc2)cc1
B. CC#C[C@@H](CC(=O)O)c1ccc(OCc2ccc(CN3CCC4(C=Cc5ccccc54)CC3)cc2)cc1
Could you kindly indicate whether A or B has the higher Kp at 0.75 h value? In your reply, give the label of the chosen option.
B

---

assay: Half life in mouse liver microsomes at 0.1 mM in presence of NADPH by LC-MS analysis; format: ADME, microsome
endpoint: half-life at 100 µM (min)

I. CC#C[C@@H](CC(=O)O)c1ccc(OCc2ccc(C(=O)N[C@H]3CCCc4ccccc43)cc2)cc1
II. CC#C[C@@H](CC(=O)O)c1ccc(OCc2ccc(CN3CCC4(C=Cc5ccccc54)CC3)cc2)cc1
Field: lower recorded half-life at 100 µM (choose I or II ) In your reply, give the label of the chosen option.
II
(II: 2 min, I: 27 min)

I. CC#C[C@@H](CC(=O)O)c1ccc(OCc2ccc(C(=O)N3CCN(c4ccc(F)cc4)CC3)s2)cc1
II. CC#CC(CC(=O)O)c1ccc(OCc2ccc(C(=O)N3CCC4(C=Cc5ccccc54)CC3)s2)cc1 (configuration not stated)
Could you kindly indicate whether I or II has the higher half-life at 100 µM value? In your reply, give the label of the chosen option.
I
(I: 120 min, II: 7 min)

a. CC#CC(CC(=O)O)c1ccc(OCc2ccc(C(=O)N3CCN(c4ccccc4)CC3)s2)cc1 (configuration not stated)
b. CC#CC(CC(=O)O)c1ccc(OCc2ccc(C(=O)N3CCC4(C=Cc5ccccc54)CC3)cc2)cc1 (configuration not stated)
Could you kindly indicate whether a or b has the higher half-life at 100 µM value? In your reply, give the label of the chosen option.
a
(a: 55 min, b: 6 min)

---

test: Tmax in ICR mouse at 30 mg/kg, po by LC-MS analysis; type: ADME, organism-based; conditions: in vivo
endpoint: Tmax (min)

smiles_code	measured_value
CC#C[C@@H](CC(=O)O)c1ccc(OCc2ccc(C(=O)N3CCN(c4ccc(F)cc4)CC3)s2)cc1	48

a. CC#C[C@@H](CC(=O)O)c1ccc(OCc2ccc(C(=O)N[C@@H]3CCCc4ccccc43)cc2)cc1
b. CC#C[C@@H](CC(=O)O)c1ccc(OCc2ccc(CN3CCC4(C=Cc5ccccc54)CC3)cc2)cc1
c. CC#C[C@@H](CC(=O)O)c1ccc(OCc2ccc(C(=O)N[C@H]3CCCc4ccccc43)cc2)cc1
Falling order of Tmax, please. Ranked list of labels, please, in the requested order.
a, b, c
(a: 72 min, b: 42 min, c: 15 min)

---

test: Ratio of drug uptake in rat brain to plasma; assay type: ADME; conditions: read-out: BPR
endpoint: Kp

a. Cc1nc(-c2ccc(C(F)(F)F)cc2)sc1COc1ccc([C@H](CC(=O)O)c2ccon2)cc1
b. Cc1cc(Cl)ccc1-c1cccc(COc2ccc([C@H](CC(=O)O)c3nccn3C)cc2)c1
Field: lower recorded Kp (choose a or b ) In your reply, give the label of the chosen option.
a
(a: 0.02, b: 0.04)

---

assay: Efflux ratio of permeability from […] in human Caco2 cells by LC-MS analysis; format: ADME, cell-based; conditions: caco-2
endpoint: Ratio

a. CC#C[C@@H](CC(=O)O)c1ccc(OCc2ccc(C(=O)N3CCN(c4ccc(F)cc4)CC3)s2)cc1
b. CC#CC(CC(=O)O)c1ccc(OCc2ccc(C(=O)N3CCC4(C=Cc5ccccc54)CC3)cc2)cc1 (stereo unspecified)
c. CC#C[C@@H](CC(=O)O)c1ccc(OCc2ccc(C(=O)N[C@H]3CCCc4ccccc43)cc2)cc1
Order the entries above from lowest to highest Ratio. Ranked list of labels, please, in the requested order.
b, a, c

1. CC#C[C@@H](CC(=O)O)c1ccc(OCc2ccc(C(=O)N[C@@H]3CCCc4ccccc43)cc2)cc1
2. CC#CC(CC(=O)O)c1ccc(OCc2ccc(C(=O)N3CCC4(C=Cc5ccccc54)CC3)s2)cc1 (stereo unspecified)
Could you kindly indicate whether 1 or 2 has the higher Ratio value? In your reply, give the label of the chosen option.
1
(1: 0.9, 2: 0.3)

---

molecular target: Free fatty acid receptor 1 (Homo sapiens, UniProt O14842); experiment: Agonist activity at human GPR40 expressed in HEK293 cells assessed as increase in calcium mobilization by Fluo-8 dye based fluorescence assay
Sequence (O14842 whole entry): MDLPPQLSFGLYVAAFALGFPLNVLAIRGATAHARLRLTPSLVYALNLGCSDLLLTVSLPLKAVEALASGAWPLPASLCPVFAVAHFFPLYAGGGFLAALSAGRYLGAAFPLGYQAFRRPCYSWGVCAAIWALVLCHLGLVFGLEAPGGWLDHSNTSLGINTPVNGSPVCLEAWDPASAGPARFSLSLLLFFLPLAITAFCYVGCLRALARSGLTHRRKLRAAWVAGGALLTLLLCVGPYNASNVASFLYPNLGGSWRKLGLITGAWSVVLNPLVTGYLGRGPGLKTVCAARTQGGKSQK
endpoint: EC50 (nM)

Sample answers from the record:
compound	readout_unit	measured_value
CC#CC(CC(=O)O)c1ccc(OCc2cnc(C(=O)N3CCc4ccccc4C3)s2)cc1 (stereo not given)	nM	531
CC#CC(CC(=O)O)c1ccc(OCc2ccc(C(=O)N3CCN(c4ccc([N+](=O)[O-])cc4)CC3)s2)cc1 (stereo not given)	nM	231
CC#CC(CC(=O)O)c1ccc(OCc2ccc(C(=O)N3CCN(c4ccc(Cl)cc4)CC3)s2)cc1 (stereo not given)	nM	133
CC#CC(CC(=O)O)c1ccc(OCc2ccc(C(=O)N3CCN(c4ccccn4)CC3)s2)cc1 (stereo not given)	nM	138
CC#CC(CC(=O)O)c1ccc(OCc2ccc(C(=O)N3CCN(c4ccc(C)cc4)CC3)s2)cc1 (stereo not given)	nM	211

P. CC#CC(CC(=O)O)c1ccc(OCc2ccc(C(=O)N3CCN(c4ccc(F)cc4)CC3)o2)cc1 (stereo not given)
Q. CC#CC(CC(=O)O)c1ccc(OCc2ccc(C(=O)NC3CCCc4ccccc43)o2)cc1 (stereo not given)
R. CC#CC(CC(=O)O)c1ccc(OCc2ccc(C(=O)N3CCN(c4ccccc4)CC3)s2)cc1 (stereo not given)
S. CC#CC(CC(=O)O)c1ccc(OCc2ccc(C(=O)NC3CCCc4ccccc43)cc2)cc1 (stereo not given)
T. CC#C[C@@H](CC(=O)O)c1ccc(OCc2ccc(C(=O)N[C@@H]3CCCc4ccccc43)cc2)cc1
Falling order of EC50, please. Ranked list of labels, please, in the requested order.
P, Q, R, S, T

a. CC#CC(CC(=O)O)c1ccc(OCc2ccc(C(=O)N3CCN(c4ccc(OC)cc4)CC3)s2)cc1 (stereo not given)
b. CC#CC(CC(=O)O)c1ccc(OCc2ccc(C(=O)N3CCN(Cc4ccccc4)CC3)s2)cc1 (stereo not given)
Could you kindly indicate whether a or b has the higher EC50 value? In your reply, give the label of the chosen option.
a
(a: 289 nM, b: 155 nM)

I. CC#CC(CC(=O)O)c1ccc(OCc2ccc(C(=O)N3CCN(c4ccc(C(C)(C)C)cc4)CC3)s2)cc1 (stereo not given)
II. CC#CC(CC(=O)O)c1ccc(OCc2ccc(C(=O)N3CCc4ccccc4C3)cc2)cc1 (stereo not given)
III. CC#CC(CC(=O)O)c1ccc(OCc2ccc(C(=O)N3CCc4ccccc4C3)s2)cc1 (stereo not given)
IV. O=C(O)CCc1ccc(OCc2ccc(C(=O)N3CCN(c4ccc(F)cc4)CC3)s2)cc1
Sort ascending by EC50. Ranked list of labels, please, in the requested order.
III, II, I, IV

---

assay: Apparent permeability across apical to basolateral side in human Caco2 cells by LC-MS analysis; type: ADME, cell-based; settings: caco-2
endpoint: Papp A→B (×10⁻⁶ cm/s)

compound	Papp A→B, ×10⁻⁶ cm/s
CC#CC(CC(=O)O)c1ccc(OCc2ccc(C(=O)N3CCC4(C=Cc5ccccc54)CC3)s2)cc1 (stereo unspecified)	19.3
CC#C[C@@H](CC(=O)O)c1ccc(OCc2ccc(C(=O)N[C@@H]3CCCc4ccccc43)cc2)cc1	18.8
CC#C[C@@H](CC(=O)O)c1ccc(OCc2ccc(C(=O)N[C@H]3CCCc4ccccc43)cc2)cc1	15.2
CC#CC(CC(=O)O)c1ccc(OCc2ccc(C(=O)N3CCC4(C=Cc5ccccc54)CC3)cc2)cc1 (stereo unspecified)	10.9
CC#C[C@@H](CC(=O)O)c1ccc(OCc2ccc(C(=O)N3CCN(c4ccc(F)cc4)CC3)s2)cc1	20.6
CC#C[C@@H](CC(=O)O)c1ccc(OCc2ccc(CN3CCC4(C=Cc5ccccc54)CC3)cc2)cc1	15

---

experiment: Half life in human liver microsomes at 0.1 mM in presence of NADPH by LC-MS analysis; format: ADME, microsome
endpoint: half-life at 100 µM (h)

molecule	half-life at 100 µM [h]
CC#C[C@@H](CC(=O)O)c1ccc(OCc2ccc(C(=O)N[C@@H]3CCCc4ccccc43)cc2)cc1	6.45
CC#CC(CC(=O)O)c1ccc(OCc2ccc(C(=O)N3CCC4(C=Cc5ccccc54)CC3)cc2)cc1 (configuration not stated)	0.15
CC#C[C@@H](CC(=O)O)c1ccc(OCc2ccc(C(=O)N3CCN(c4ccc(F)cc4)CC3)s2)cc1	1.07
CC#C[C@@H](CC(=O)O)c1ccc(OCc2ccc(CN3CCC4(C=Cc5ccccc54)CC3)cc2)cc1 [LY2881835]	0.3

I. CC#C[C@@H](CC(=O)O)c1ccc(OCc2ccc(C(=O)N[C@H]3CCCc4ccccc43)cc2)cc1
II. CC#CC(CC(=O)O)c1ccc(OCc2ccc(C(=O)N3CCC4(C=Cc5ccccc54)CC3)s2)cc1 (configuration not stated)
III. CC#CC(CC(=O)O)c1ccc(OCc2ccc(C(=O)N3CCN(c4ccccc4)CC3)s2)cc1 (configuration not stated)
Falling order of half-life at 100 µM, please. Ranked list of labels, please, in the requested order.
I, III, II
(I: 3.57 h, III: 1.75 h, II: 0.417 h)
